Tested on: HT-29
Assay: Cytotoxicity against human HT-29 cells after 72 hrs by MTT assay
Format: functional, cell-based
Details: HT-29, 72 h
# pIC50 listing for each entry below
When answering, recall that pIC50 equals minus log10 of the concentration in mol/L, and write that number alone.

Before answering, review these 5 worked examples.
COc1cc(C=C2CSCC(=Cc3cc(OC)c(O)c(OC)c3)C2=O)cc(OC)c1O	5.76
O=C1/C(=C/c2ccncc2)CC/C1=C\c1ccncc1	5.12
O=C1/C(=C/c2ccccn2)CSC/C1=C\c1ccccn1	6.12
O=C1/C(=C/c2ccc(Br)cc2)CNC/C1=C\c1ccc(Br)cc1	5.38
COc1cc(/C=C2\CCC/C(=C\c3cc(OC)c(OC)c(OC)c3)C2=O)cc(OC)c1OC	5.37

Return pIC50 (reported value) for this compound: O=C1/C(=C/c2ccccn2)CC/C1=C\c1ccccn1 5.27

###

Test system: PC-3
Assay: Induction of apoptosis in human PC3 cells at <1 uM after 96 hrs by morphology analysis
Type: functional, cell-based
The source made the active and inactive calls. The calls are words filed in the database; no cut-off is given here.
Entry note: the call must match one of Y (active), N (inactive)

Some entries whose results are on file:
COc1cc(/C=C/C(=O)CC(=O)/C=C/c2ccc(O)c(OC)c2)ccc1O	N
COc1cc(C=C2CSCC(=Cc3cc(OC)c(OC)c(OC)c3)C2=O)cc(OC)c1OC	Y
O=C1/C(=C/c2cccnc2)CSC/C1=C\c1cccnc1	Y
COc1cc(/C=C2\COC/C(=C\c3cc(OC)c(OC)c(OC)c3)C2=O)cc(OC)c1OC	Y

Each compound tested received a call. Report the one for O=C1/C(=C/c2ccccn2)CSC/C1=C\c1ccccn1 . Y

###

System: HT-29
Test: Cytotoxicity against human HT-29 cells after 72 hrs by MTT assay
Format: functional, cell-based
Settings: HT-29, 72 h
valueType: pIC50
When answering, recall that pIC50 equals minus log10 of the concentration in mol/L, and write that number alone.

COc1ccc(C=C2CSCC(=Cc3ccc(OC)c(OC)c3OC)C2=O)c(OC)c1OC	5.54

Find the measured pIC50 of O=C(/C=C/c1ccc(F)cc1)/C=C/c1ccc(F)cc1 with HT-29 as test system. 5.03

Find the measured pIC50 of O=C1/C(=C/c2ccc(O)cc2)CC/C1=C\c1ccc(O)cc1 with HT-29 as test system. 4.67

###

System: HT-29
Assay: Cytotoxicity against human HT-29 cells after 72 hrs by MTT assay
Assay type: functional, cell-based
Details: HT-29, 72 h
Response field class: enum, chosen by comparing IC50 against low group: < 4 µM; middle group: ≥ 4 µM and < 9 µM; high group: ≥ 9 µM

Some entries whose results are on file:
O=C1/C(=C/c2ccc(F)cc2)CCC/C1=C\c1ccc(F)cc1	middle group
COc1ccc(/C=C2\CC/C(=C\c3ccc(OC)c(OC)c3)C2=O)cc1OC	high group
COc1ccc(/C=C2\COC/C(=C\c3ccc(OC)cc3)C2=O)cc1	middle group
COc1cc(/C=C/C(=O)CC(=O)/C=C/c2ccc(O)c(OC)c2)ccc1O	high group
COc1cc(/C=C2\COC/C(=C\c3cc(OC)c(O)c(OC)c3)C2=O)cc(OC)c1O	low group
O=C1/C(=C/c2cccnc2)CSC/C1=C\c1cccnc1	low group

Kindly identify the class of O=C1/C(=C/c2ccncc2)CCC/C1=C\c1ccncc1 . low group

Kindly identify the class of O=C(/C=C/c1ccc(O)cc1)/C=C/c1ccc(O)cc1 . high group

Kindly identify the class of COc1ccc(/C=C2\CC/C(=C\c3ccc(OC)cc3)C2=O)cc1 . high group

Kindly identify the class of O=C1/C(=C/c2ccsc2)CC/C1=C\c1ccsc1 . high group

Kindly identify the class of O=C(/C=C/c1ccc(Br)cc1)/C=C/c1ccc(Br)cc1 . high group

Kindly identify the class of COc1cc(/C=C/C(=O)/C=C/c2cc(OC)c(O)c(OC)c2)cc(OC)c1O . low group

Kindly identify the class of O=C1/C(=C/c2ccc(O)cc2)COC/C1=C\c1ccc(O)cc1 . low group

Kindly identify the class of COc1cc(/C=C/C(=O)/C=C/c2ccc(O)c(OC)c2)ccc1O . low group

Kindly identify the class of O=C1/C(=C/c2cccnc2)CCC/C1=C\c1cccnc1 . low group

Kindly identify the class of COc1ccc(/C=C2\CCC/C(=C\c3ccc(OC)c(OC)c3OC)C2=O)c(OC)c1OC . middle group

Kindly identify the class of O=C1/C(=C/c2ccc(O)cc2)CCC/C1=C\c1ccc(O)cc1 . high group

Kindly identify the class of O=C1/C(=C/c2ccncc2)CSC/C1=C\c1ccncc1 . low group

Kindly identify the class of O=C1/C(=C/c2ccc(F)cc2)CC/C1=C\c1ccc(F)cc1 . high group

Kindly identify the class of COc1ccc(/C=C/C(=O)/C=C/c2ccc(OC)c(OC)c2OC)c(OC)c1OC . middle group

Kindly identify the class of O=C1/C(=C/c2ccc(Cl)cc2)CNC/C1=C\c1ccc(Cl)cc1 . middle group

Kindly identify the class of O=C1C(=Cc2ccc(O)cc2)CSCC1=Cc1ccc(O)cc1 . middle group

Cited source: ChEMBL document CHEMBL2034978
